Values from patent US20260000676A1

Molecular target: CRBN/DDB1 (Homo sapiens (Human))
Sequence (Q96SW2 whole entry): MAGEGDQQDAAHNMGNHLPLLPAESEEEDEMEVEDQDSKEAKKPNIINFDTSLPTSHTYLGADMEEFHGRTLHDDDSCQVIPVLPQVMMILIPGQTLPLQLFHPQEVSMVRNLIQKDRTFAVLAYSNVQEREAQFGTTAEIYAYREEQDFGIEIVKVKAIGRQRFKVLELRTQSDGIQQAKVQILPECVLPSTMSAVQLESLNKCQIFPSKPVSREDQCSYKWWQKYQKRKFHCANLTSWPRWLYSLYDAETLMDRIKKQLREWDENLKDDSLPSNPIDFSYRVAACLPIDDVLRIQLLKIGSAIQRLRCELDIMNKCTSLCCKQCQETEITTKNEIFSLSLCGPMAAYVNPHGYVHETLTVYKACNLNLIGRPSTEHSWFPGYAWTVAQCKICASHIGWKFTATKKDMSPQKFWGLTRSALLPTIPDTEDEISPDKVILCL
Sequence (Q16531 whole entry partner): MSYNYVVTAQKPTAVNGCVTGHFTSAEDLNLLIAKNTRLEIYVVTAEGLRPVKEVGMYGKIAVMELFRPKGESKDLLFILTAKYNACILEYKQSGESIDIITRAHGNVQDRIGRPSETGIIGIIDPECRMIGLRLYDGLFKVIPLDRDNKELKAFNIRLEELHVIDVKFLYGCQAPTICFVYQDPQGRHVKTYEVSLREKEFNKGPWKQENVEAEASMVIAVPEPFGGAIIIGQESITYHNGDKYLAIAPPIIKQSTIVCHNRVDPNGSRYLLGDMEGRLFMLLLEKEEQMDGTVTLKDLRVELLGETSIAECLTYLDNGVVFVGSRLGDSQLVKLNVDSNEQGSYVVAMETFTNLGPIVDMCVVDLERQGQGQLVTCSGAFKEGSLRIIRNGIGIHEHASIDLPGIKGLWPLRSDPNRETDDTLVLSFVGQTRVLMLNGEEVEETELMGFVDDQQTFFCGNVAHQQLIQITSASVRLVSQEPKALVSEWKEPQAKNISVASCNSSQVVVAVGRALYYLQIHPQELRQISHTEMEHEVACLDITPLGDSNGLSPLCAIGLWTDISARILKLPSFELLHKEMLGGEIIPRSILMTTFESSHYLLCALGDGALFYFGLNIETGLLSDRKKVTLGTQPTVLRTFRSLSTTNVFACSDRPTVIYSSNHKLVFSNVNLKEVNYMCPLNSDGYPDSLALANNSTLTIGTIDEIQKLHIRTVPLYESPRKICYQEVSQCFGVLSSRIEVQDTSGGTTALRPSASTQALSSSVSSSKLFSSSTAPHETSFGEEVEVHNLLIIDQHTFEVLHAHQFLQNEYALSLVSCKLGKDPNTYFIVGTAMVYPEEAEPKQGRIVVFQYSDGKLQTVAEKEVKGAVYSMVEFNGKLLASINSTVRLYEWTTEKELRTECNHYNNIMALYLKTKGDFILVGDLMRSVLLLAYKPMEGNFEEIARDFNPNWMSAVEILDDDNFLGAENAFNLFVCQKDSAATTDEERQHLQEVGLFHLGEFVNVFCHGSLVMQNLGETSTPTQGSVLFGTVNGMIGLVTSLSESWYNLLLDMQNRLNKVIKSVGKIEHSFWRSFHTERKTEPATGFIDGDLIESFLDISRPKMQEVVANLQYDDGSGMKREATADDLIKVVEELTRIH
Assay: HTRF binding assay to CRBN/DDB1
Conditions: read-out: CRBN HTRF IC50
pIC50: −log10 of the molar value.
Exercise: for every item that follows, state its recorded pIC50.

QUERY: Request the reported pIC50 associated with O=C1CC[C@H](NC(=O)c2ccc3c(n2)OC[C@H]2CN(C[C@@H]4COC5(CCN(c6ccc([C@@H]7c8ccc(O)cc8OC[C@@H]7c7ccccc7)cc6)CC5)C4)CCN32)C(=O)N1
RESULT: 5.30 to 6.30

QUERY: Request the reported pIC50 associated with O=C1CCC(N2Cc3cc4c(cc3C2=O)OC[C@@H]2CN(CC3CCN(c5ncc([C@H]6c7ccc(O)cc7OC[C@H]6c6ccccc6)cn5)CC3)CCN42)C(=O)N1 (stereo partly shown)
RESULT: 5.30 to 6.30

QUERY: Request the reported pIC50 associated with O=C1CC[C@@H](N2Cc3cc4c(cc3C2=O)OC[C@@H]2CN(CC3CC5(CCN(c6ccc([C@H]7c8ccc(O)cc8OC[C@H]7c7ccccc7)cc6)CC5)C3)CCN42)C(=O)N1
RESULT: 6.30 to 7.30

QUERY: Request the reported pIC50 associated with O=C1CC[C@H](N2Cc3cc4c(cc3C2)N2CCN(C[C@@H]3COC5(CCN(c6ccc([C@H]7c8ccc(O)cc8OC[C@H]7c7ccccc7)cc6F)CC5)C3)C[C@H]2CO4)C(=O)N1
RESULT: 6.30 to 7.30

QUERY: Request the reported pIC50 associated with O=C1CCC(N2Cc3c(ccc4c3OC[C@H]3CN(CC5CC6(CCN(c7ccc([C@@H]8c9ccc(O)cc9OC[C@@H]8c8ccccc8)cn7)CC6)C5)CCN43)C2=O)C(=O)N1 (single isomer, unassigned)
RESULT: 6.30 to 7.30

QUERY: Request the reported pIC50 associated with O=C1CCC(N2Cc3cc(N4CCN(CC5CC6(CCN(c7ccc([C@@H]8c9ccc(O)cc9OC[C@@H]8c8ccccc8)cn7)CC6)C5)CC4)ccc3C2=O)C(=O)N1 (single isomer, unassigned)
RESULT: 6.30 to 7.30

QUERY: Request the reported pIC50 associated with O=C1CC[C@@H](N2Cc3cc4c(cc3C2=O)OC[C@@H]2CN(C[C@@H]3COC5(CCN(c6ccc([C@H]7c8ccc(O)cc8OC[C@H]7c7ccccc7)cc6)CC5)C3)CCN42)C(=O)N1
RESULT: 6.30 to 7.30

QUERY: Request the reported pIC50 associated with COc1cc(N2CCC3(CC2)CC(CN2CCN4c5ccc6c(c5OC[C@@H]4C2)CN([C@@H]2CCC(=O)NC2=O)C6=O)C3)c(F)cc1[C@H]1c2ccc(O)cc2OC[C@H]1c1ccccc1
RESULT: > 7.30

QUERY: Request the reported pIC50 associated with O=C1CCC(N2Cc3cc4c(cc3C2=O)OC[C@@H]2CN(CC3CC5(CCN(c6ccc([C@@H]7c8ccc(O)cc8OC[C@@H]7c7ccccc7)cc6)CC5)C3)CCN42)C(=O)N1 (stereo partly shown)
RESULT: < 5.30

QUERY: Request the reported pIC50 associated with O=C1CCC(Nc2ccc3c(c2)OC[C@H]2CN(CC4CC5(CCN(c6ccc([C@@H]7c8ccc(O)cc8OC[C@@H]7c7ccccc7)cc6)CC5)C4)CCN32)C(=O)N1 (stereo partly shown)
RESULT: 5.30 to 6.30
